Recorded values, source patent US6043045A.

TEST_SYSTEM: KinA (Bacillus subtilis, UniProt P16497)
Construct: made in house
Sequence (P16497 whole entry): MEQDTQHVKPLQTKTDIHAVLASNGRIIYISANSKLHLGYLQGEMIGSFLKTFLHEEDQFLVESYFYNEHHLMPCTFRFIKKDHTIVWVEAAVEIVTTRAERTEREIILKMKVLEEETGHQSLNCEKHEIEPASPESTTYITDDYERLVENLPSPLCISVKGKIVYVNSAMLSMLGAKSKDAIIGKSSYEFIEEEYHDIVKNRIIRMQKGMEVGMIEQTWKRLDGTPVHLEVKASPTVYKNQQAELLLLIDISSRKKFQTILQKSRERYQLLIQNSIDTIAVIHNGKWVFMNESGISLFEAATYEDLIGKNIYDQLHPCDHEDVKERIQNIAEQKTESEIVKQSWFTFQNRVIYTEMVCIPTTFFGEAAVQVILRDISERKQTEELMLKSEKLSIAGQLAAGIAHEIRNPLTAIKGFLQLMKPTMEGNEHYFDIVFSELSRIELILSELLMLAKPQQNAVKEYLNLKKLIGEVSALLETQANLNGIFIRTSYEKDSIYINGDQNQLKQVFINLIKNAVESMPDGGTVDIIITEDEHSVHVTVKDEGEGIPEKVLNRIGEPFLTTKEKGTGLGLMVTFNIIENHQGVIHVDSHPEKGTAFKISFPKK
ASSAY_NOTES: biochemical
Assay type: biochemical
QUANTITY_NAME: inhibitory effect on KinA in vitro (in words)

>  <COMPOUND>
CCCCCCCC(=O)O [octanoic]

>  <REPORTED_RESULT>
not inhibitors

$$$$
>  <COMPOUND>
CC(C)CCCCCCCCCCC(=O)O [12-methyltridecanoic]

>  <REPORTED_RESULT>
weak inhibitors

$$$$
>  <COMPOUND>
CC(C)CCCCCCCCCCCCCC(=O)O [15-methylhexadecanoic]

>  <REPORTED_RESULT>
not inhibitors

$$$$
>  <COMPOUND>
CC(C)CCCCCCCCCCCCC(=O)O [14-methylpentadecanoic]

>  <REPORTED_RESULT>
not inhibitors

$$$$
>  <COMPOUND>
CCCCCCCC/C=C\CCCCCCCCCCCCCC(=O)O [cis-15-tetracosenoic]

>  <REPORTED_RESULT>
non-inhibitory

$$$$

For every listed record, write down its inhibitory effect on KinA in vitro (in words).
1. CC(C)CCCCCCCCCCCC(=O)O [13-methyltetradecanoic]
2. CC(C)CCCCCCCCCCCCCCC(=O)O [16-methylheptadecanoic]
3. CCCCCC/C=C\CCCCCCCCCC(=O)O [cis-11-octadecanoic]
4. CCCCCC/C=C\CCCCCCCC(=O)O [cis-9-hexadecanoic]
5. CCCCCCCCCC(=O)O [decanoic]
6. CCCCCC(=O)O [hexanoic]

## Result
1: weak inhibitors; 2: not inhibitors; 3: potent inhibitors; 4: potent inhibitors; 5: not inhibitors; 6: not inhibitors
